molecular target: Human ACC1 (Homo sapiens, UniProt Q13085); construct: made in house; host or cells: SF-9 insect cells (baculovirus, pFAST-BacHTc); experiment: In vitro enzymatic ACC activity assay (malachite green), ACC1; assay type: biochemical; conditions: recombinant His-tagged enzyme, absorbance at 620 nm
Catalogue of IC50 values

Example results:
- Compound: "CCNC(=O)Nc1sc2ccccc2c1C(=O)N1CCN(S(=O)(=O)CCC(F)(F)F)CC1"
  IC50: "> 50 µM"
- Compound: "CCNC(=O)Nc1sc2ccccc2c1C(=O)N1CCN(S(=O)(=O)c2ccc(S(C)(=O)=O)cc2)CC1"
  IC50: "> 50 µM"
- Compound: "CCNC(=O)Nc1sc2ccccc2c1C(=O)N1CCC(Sc2cccc(OC)c2)CC1"
  IC50: "< 5 µM"

Input line: IC50 for CCNC(=O)Nc1sc2ccccc2c1C(=O)N1CCN(S(=O)(=O)c2ccc(OC)c(OC)c2)CC1 ?
Output line: < 5 µM

Input line: IC50 for CCNC(=O)Nc1sc2ccccc2c1C(=O)N1CCN(S(=O)(=O)c2ccc3c(c2)OCO3)CC1 ?
Output line: > 50 µM

Input line: IC50 for CCNC(=O)Nc1sc2ccccc2c1C(=O)N1CCN(S(=O)(=O)c2ccc3ncsc3c2)CC1 ?
Output line: < 5 µM

Input line: IC50 for CCNC(=O)Nc1sc2ccccc2c1C(=O)N1CCC(S(=O)(=O)c2ccc3c(c2)OCO3)CC1 ?
Output line: > 50 µM

Input line: IC50 for CCNC(=O)Nc1sc2ccccc2c1C(=O)N1CCN(S(=O)(=O)c2cccc(-c3ccnc(C)n3)c2)CC1 ?
Output line: 5 to 50 µM

====

molecular target: Human ACC2 (Homo sapiens, UniProt O00763); construct: made in house; host or cells: SF-9 insect cells (baculovirus, pFAST-BacHTa); assay: In vitro enzymatic ACC activity assay (malachite green), ACC2; format: biochemical; conditions: recombinant His-tagged enzyme, absorbance at 620 nm
Sequence (O00763 117-2458 limits assumed): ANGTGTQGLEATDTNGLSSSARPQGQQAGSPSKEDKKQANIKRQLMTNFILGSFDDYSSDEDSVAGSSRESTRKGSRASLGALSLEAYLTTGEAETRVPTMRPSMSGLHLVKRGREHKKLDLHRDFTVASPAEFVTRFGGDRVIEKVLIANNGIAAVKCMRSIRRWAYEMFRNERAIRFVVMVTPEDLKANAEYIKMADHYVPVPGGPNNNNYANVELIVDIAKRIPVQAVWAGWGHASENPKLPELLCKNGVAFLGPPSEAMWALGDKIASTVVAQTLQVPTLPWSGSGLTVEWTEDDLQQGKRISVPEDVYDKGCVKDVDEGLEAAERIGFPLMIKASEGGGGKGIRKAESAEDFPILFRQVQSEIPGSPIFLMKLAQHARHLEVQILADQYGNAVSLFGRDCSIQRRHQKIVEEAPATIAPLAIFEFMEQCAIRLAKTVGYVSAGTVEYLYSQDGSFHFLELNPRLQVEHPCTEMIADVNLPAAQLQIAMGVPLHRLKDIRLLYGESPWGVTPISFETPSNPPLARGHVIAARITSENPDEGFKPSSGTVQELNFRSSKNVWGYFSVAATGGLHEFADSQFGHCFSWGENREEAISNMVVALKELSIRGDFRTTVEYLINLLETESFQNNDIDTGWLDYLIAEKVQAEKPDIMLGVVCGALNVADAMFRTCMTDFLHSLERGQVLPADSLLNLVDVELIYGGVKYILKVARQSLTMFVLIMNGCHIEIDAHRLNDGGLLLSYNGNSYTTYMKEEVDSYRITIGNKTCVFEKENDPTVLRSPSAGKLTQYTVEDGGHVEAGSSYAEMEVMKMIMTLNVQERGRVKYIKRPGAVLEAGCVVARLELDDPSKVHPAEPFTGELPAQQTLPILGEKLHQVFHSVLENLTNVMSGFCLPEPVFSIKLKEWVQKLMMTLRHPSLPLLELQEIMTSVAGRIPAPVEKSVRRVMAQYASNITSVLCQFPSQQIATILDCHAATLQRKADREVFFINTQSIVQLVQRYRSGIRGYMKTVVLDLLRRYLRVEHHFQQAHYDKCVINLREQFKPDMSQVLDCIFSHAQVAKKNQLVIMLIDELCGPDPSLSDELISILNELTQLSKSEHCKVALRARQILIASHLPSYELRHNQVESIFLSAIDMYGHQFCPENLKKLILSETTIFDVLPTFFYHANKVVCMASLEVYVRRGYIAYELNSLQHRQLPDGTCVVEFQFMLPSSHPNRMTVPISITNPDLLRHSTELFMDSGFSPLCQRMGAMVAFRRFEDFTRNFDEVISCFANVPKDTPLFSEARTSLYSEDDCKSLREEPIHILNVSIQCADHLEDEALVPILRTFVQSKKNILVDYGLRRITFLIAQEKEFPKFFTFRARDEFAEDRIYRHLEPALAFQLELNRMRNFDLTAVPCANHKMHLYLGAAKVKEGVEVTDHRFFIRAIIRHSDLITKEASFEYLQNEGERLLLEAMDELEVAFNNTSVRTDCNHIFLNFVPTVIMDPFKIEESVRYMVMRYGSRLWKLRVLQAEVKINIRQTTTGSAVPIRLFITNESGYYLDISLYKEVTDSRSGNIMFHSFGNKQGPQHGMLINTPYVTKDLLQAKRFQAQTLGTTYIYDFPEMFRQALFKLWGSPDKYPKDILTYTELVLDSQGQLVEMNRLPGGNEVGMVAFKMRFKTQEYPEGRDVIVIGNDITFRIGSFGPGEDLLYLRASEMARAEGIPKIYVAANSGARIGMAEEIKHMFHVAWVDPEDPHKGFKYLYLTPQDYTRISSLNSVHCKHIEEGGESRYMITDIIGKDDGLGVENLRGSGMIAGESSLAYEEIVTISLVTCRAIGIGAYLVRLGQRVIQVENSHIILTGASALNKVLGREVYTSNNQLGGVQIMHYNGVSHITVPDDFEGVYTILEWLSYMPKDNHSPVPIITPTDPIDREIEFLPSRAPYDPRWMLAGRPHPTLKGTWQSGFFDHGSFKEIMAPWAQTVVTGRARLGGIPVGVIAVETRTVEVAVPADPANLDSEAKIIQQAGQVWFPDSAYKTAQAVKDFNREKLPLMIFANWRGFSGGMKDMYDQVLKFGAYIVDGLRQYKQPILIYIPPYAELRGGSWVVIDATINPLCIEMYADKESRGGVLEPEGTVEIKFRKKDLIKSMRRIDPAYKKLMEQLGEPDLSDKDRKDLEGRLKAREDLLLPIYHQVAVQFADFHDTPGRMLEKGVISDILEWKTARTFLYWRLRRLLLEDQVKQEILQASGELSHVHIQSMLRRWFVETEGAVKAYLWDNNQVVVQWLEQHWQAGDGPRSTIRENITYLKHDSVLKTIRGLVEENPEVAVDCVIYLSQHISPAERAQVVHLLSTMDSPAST
Assay Endpoint: IC50

Input line: IC50 for CCNC(=O)Nc1sc2ccccc2c1C(=O)N1CCN(S(=O)(=O)c2cccc(OC)c2)CC1 ?
Output line: < 5 µM

Input line: IC50 for CCNC(=O)Nc1sc2ccccc2c1C(=O)N1CCN(S(=O)(=O)c2ccc3ncsc3c2)CC1 ?
Output line: < 5 µM

Input line: IC50 for CCNC(=O)Nc1sc2ccccc2c1C(=O)N1CCC(S(=O)(=O)c2cccc(OC)c2)CC1 ?
Output line: < 5 µM

====

Catalogue of IC50 values
target: Human ACC1 (Homo sapiens, UniProt Q13085); construct: made in house; host or cells: SF-9 insect cells (baculovirus, pFAST-BacHTc); experiment: In vitro enzymatic ACC activity assay (malachite green), ACC1; type: biochemical; details: recombinant His-tagged enzyme, absorbance at 620 nm

- Compound: "CCNC(=O)Nc1sc2ccccc2c1C(=O)N1CCN(S(=O)(=O)c2ccc3c(c2)NC(=O)C3)CC1 [Example 30]"
  Target System: "Human ACC1 (Homo sapiens, UniProt Q13085)"
  Measured Result: "5 to 50 µM"
- Compound: "CCNC(=O)Nc1sc2ccccc2c1C(=O)N1CCN(S(=O)(=O)c2cccc(-c3nnc(C)o3)c2)CC1 [Example 11]"
  Target System: "Human ACC1 (Homo sapiens, UniProt Q13085)"
  Measured Result: "5 to 50 µM"
- Compound: "CCNC(=O)Nc1sc2ccccc2c1C(=O)N1CCN(S(=O)(=O)CC(C)C)CC1 [Example 26]"
  Target System: "Human ACC1 (Homo sapiens, UniProt Q13085)"
  Measured Result: "5 to 50 µM"
- Compound: "CCNC(=O)Nc1sc2ccccc2c1C(=O)N1CCN(S(=O)(=O)c2cccc(OC)c2)CC1 [Example 7]"
  Target System: "Human ACC1 (Homo sapiens, UniProt Q13085)"
  Measured Result: "> 50 µM"
- Compound: "CCNC(=O)Nc1sc2ccccc2c1C(=O)N1CCN(S(=O)(=O)c2cccc(OC(F)(F)F)c2)CC1 [Example 15]"
  Target System: "Human ACC1 (Homo sapiens, UniProt Q13085)"
  Measured Result: "> 50 µM"

Input line: Give Human ACC1 (Homo sapiens, UniProt Q13085) IC50 for CCNC(=O)Nc1sc2ccccc2c1C(=O)N1CCN(S(=O)(=O)CCC(=O)N2CCCC2)CC1 [Example 35]
Output line: 5 to 50 µM

Input line: Give Human ACC1 (Homo sapiens, UniProt Q13085) IC50 for CCNC(=O)Nc1sc2ccccc2c1C(=O)N1CCN(S(=O)(=O)c2ccc(N3CCOCC3)nc2)CC1 [Example 14]
Output line: < 5 µM

Input line: Give Human ACC1 (Homo sapiens, UniProt Q13085) IC50 for CCNC(=O)Nc1sc2ccccc2c1C(=O)N1CCC(Sc2cccc(OC(F)(F)F)c2)CC1 [Example 40]
Output line: > 50 µM

Input line: Give Human ACC1 (Homo sapiens, UniProt Q13085) IC50 for CCNC(=O)Nc1sc2ccccc2c1C(=O)N1CCC(S(=O)(=O)c2cccc(OC)c2)CC1 [Example 37]
Output line: > 50 µM

====

Biological target: Human ACC2 (Homo sapiens)
Construct: made in house; host or cells: SF-9 insect cells (baculovirus, pFAST-BacHTa)
Assay: In vitro enzymatic ACC activity assay (malachite green), ACC2
Type: biochemical
Conditions: recombinant His-tagged enzyme, absorbance at 620 nm
Experimental: Provided in Example A is an in vitro enzymatic ACC activity assay for activity against ACC. The binding affinity of the test compound to ACC1 or ACC2 is determined by the changes in absorbance (at 620 nm); […]. It should be noted that a variety of other expression systems and hosts are also suitable for the expression of ACC, as would be readily appreciated by one of skill in the art. […]
Assay Endpoint: IC50

Example results:
- Compound: "CCNC(=O)Nc1sc2ccccc2c1C(=O)N1CCN(S(=O)(=O)c2cccc(NC(C)=O)c2)CC1"
  Measured Result: "< 5 µM"
- Compound: "CCNC(=O)Nc1sc2ccccc2c1C(=O)N1CCN(S(=O)(=O)c2ccc(N3CCCC3=O)cc2)CC1"
  Measured Result: "< 5 µM"
- Compound: "CCNC(=O)Nc1sc2ccccc2c1C(=O)N1CCC(Sc2cccc(OC(F)(F)F)c2)CC1"
  Measured Result: "5 to 50 µM"
- Compound: "CCNC(=O)Nc1sc2ccccc2c1C(=O)N1CCC([S+]([O-])c2cccc(OC(F)(F)F)c2)CC1 (centres unmarked)"
  Measured Result: "5 to 50 µM"

Input line: IC50 for CCNC(=O)Nc1sc2ccccc2c1C(=O)N1CCN(S(=O)(=O)c2cccc(-c3noc(C)n3)c2)CC1 ?
Output line: < 5 µM

====

biological target: Human ACC1 (Homo sapiens); construct: made in house; host or cells: SF-9 insect cells (baculovirus, pFAST-BacHTc); assay: In vitro enzymatic ACC activity assay (malachite green), ACC1; type: biochemical; conditions: recombinant His-tagged enzyme, absorbance at 620 nm
Assay Endpoint: IC50

Example results:
- Molecule: "CCNC(=O)Nc1sc2ccccc2c1C(=O)N1CCN(S(=O)(=O)c2ccc3oc(=O)[nH]c3c2)CC1"
  IC50: "> 50 µM"
- Molecule: "CCNC(=O)Nc1sc2ccccc2c1C(=O)N1CCN(S(=O)(=O)c2cccc(S(C)(=O)=O)c2)CC1"
  IC50: "5 to 50 µM"
- Molecule: "CCNC(=O)Nc1sc2ccccc2c1C(=O)N1CCN(S(=O)(=O)c2ccc(OC)c(NC(C)=O)c2)CC1"
  IC50: "< 5 µM"
- Molecule: "CCNC(=O)Nc1sc2ccccc2c1C(=O)N1CCN(S(=O)(=O)c2cccc(C(C)=O)c2)CC1"
  IC50: "< 5 µM"
- Molecule: "CCNC(=O)Nc1sc2ccccc2c1C(=O)N1CCN(S(=O)(=O)CCC(=O)OCC)CC1"
  IC50: "5 to 50 µM"

Input line: IC50 for CCNC(=O)Nc1sc2ccccc2c1C(=O)N1CCC([S+]([O-])c2cccc(OC)c2)CC1 (centres unmarked) ?
Output line: 5 to 50 µM

Input line: IC50 for CCNC(=O)Nc1sc2ccccc2c1C(=O)N1CCN(S(C)(=O)=O)CC1 ?
Output line: > 50 µM

Input line: IC50 for CCNC(=O)Nc1sc2ccccc2c1C(=O)N1CCN(S(=O)(=O)c2ccc3c(c2)OCCCO3)CC1 ?
Output line: < 5 µM

Input line: IC50 for CCNC(=O)Nc1sc2ccccc2c1C(=O)N1CCN(S(=O)(=O)c2cccc(-c3csc(C)n3)c2)CC1 ?
Output line: > 50 µM

Input line: IC50 for CCNC(=O)Nc1sc2ccccc2c1C(=O)N1CCN(S(=O)(=O)C2CCS(=O)(=O)C2)CC1 (centres unmarked) ?
Output line: 5 to 50 µM

Input line: IC50 for CCNC(=O)Nc1sc2ccccc2c1C(=O)N1CCN(S(=O)(=O)c2ccccc2C#N)CC1 ?
Output line: > 50 µM

Input line: IC50 for CCNC(=O)Nc1sc2ccccc2c1C(=O)N1CCN(S(=O)(=O)c2cccc([N+](=O)[O-])c2)CC1 ?
Output line: > 50 µM

Input line: IC50 for CCNC(=O)Nc1sc2ccccc2c1C(=O)N1CCN(S(=O)(=O)c2ccc(N3CCCC3=O)cc2)CC1 ?
Output line: > 50 µM

Input line: IC50 for CCNC(=O)Nc1sc2ccccc2c1C(=O)N1CCN(S(=O)(=O)c2ccc(NC(C)=O)cc2)CC1 ?
Output line: < 5 µM

Input line: IC50 for CCNC(=O)Nc1sc2ccccc2c1C(=O)N1CCN(S(=O)(=O)c2cccc(NC(C)=O)c2)CC1 ?
Output line: 5 to 50 µM

Input line: IC50 for CCNC(=O)Nc1sc2ccccc2c1C(=O)N1CCN(S(=O)(=O)c2ccc(Cl)c(S(N)(=O)=O)c2)CC1 ?
Output line: < 5 µM

Input line: IC50 for CCNC(=O)Nc1sc2ccccc2c1C(=O)N1CCN(S(=O)(=O)c2ccc3[nH]c(=O)[nH]c3c2)CC1 ?
Output line: < 5 µM

Input line: IC50 for CCNC(=O)Nc1sc2ccccc2c1C(=O)N1CCN(S(=O)(=O)CCC(=O)N2CCOCC2)CC1 ?
Output line: 5 to 50 µM

Input line: IC50 for CCNC(=O)Nc1sc2ccccc2c1C(=O)N1CCN(S(=O)(=O)c2ccccc2)CC1 ?
Output line: > 50 µM
